- Test system: TK-10
- run.description: NCI tumour cell line growth inhibition, 48 h
The source made the active and inactive calls. No stated cut-off is given here; in the data, active = GI50 up to about 1.1 µM and inactive = higher.
quantity.name: GI50

In [3]: df
Out[3]:
                                   compound         result_value
0  COC(=O)C12OCC34C(CC5C(C)=C(O)C(=O)CC5(C)C3C(O)C1O)OC(=O)C(OC(=O)C=C(C)C)C24 (centres undefined)  < 0.215 µM (active)
1  COc1ccc(C2SCC(=O)N2NC(=O)C(C)Oc2ccc(Cl)cc2Cl)cc1 (centres undefined)   42.6 µM (inactive)
2  C#CC1NC(=O)C1N(CC)CC (centres undefined)  > 100 µM (inactive)
3  CCC1C(=O)OCc2c1cc1n(c2=O)Cc2ccccc2-1 (centres undefined)  > 100 µM (inactive)

---

- System: UACC-257
- run.description: NCI tumour cell line growth inhibition, 48 h
Calls of active or inactive are those of the source. Rule as the data show it: active = GI50 up to about 1.1 µM and inactive = higher.
Quick reference for GI50 among some compounds
quantity.name: GI50

>>> print(df.to_string())
                                chem_smiles  assayed_target  quantity_name          result_value
0                  CC(C)OC(=O)Nc1cccc(Cl)c1        UACC-257           GI50   > 100 µM (inactive)
1  CC(=O)Oc1ccc2c(c1)c1c(=O)oc(N(C)C)nc1n2Cc1ccccc1        UACC-257           GI50  > 86.5 µM (inactive)
2  O=C(NC(=O)c1cc2cc(Br)cc(Br)c2oc1=O)Oc1ccccc1        UACC-257           GI50    59.2 µM (inactive)

---

- Test system: HOP-92
- run.description: NCI tumour cell line growth inhibition, 48 h
Active and inactive are the calls of the source. Rule as the data show it: active = GI50 up to about 1.1 µM and inactive = higher.

compound	GI50
CCOC(=O)[C@H](Cc1ccc(O)cc1)/N=C1/[C@H]2CCC[C@]1(O)[C@@](C)([N+](=O)[O-])C2	> 100 µM (inactive)
O=C1C2CN(Cc3ccccc3)CC1CN(CC1CC1)C2	> 100 µM (inactive)
Cc1cn([C@H]2C[C@@H](N3C(=O)c4ccccc4C3=O)[C@@H](CO[Si](C)(C)C(C)(C)C)O2)c(=O)[nH]c1=O	48.6 µM (inactive)
CCCNC(=S)N/C=C1/C(=O)C=C(C)OC1=O	> 100 µM (inactive)
Cc1cc(NS(=O)(=O)c2ccc(NC(NC(=O)C(C(F)(F)F)C(F)(F)F)(C(F)(F)F)C(F)(F)F)cc2)no1	> 100 µM (inactive)
COc1ccc(C2C3CCc4ccccc4C3=NN2S(=O)(=O)c2ccc(/C=C/C(=O)O)cc2)cc1 (configuration not stated)	11.6 µM (inactive)
CCC(C)C1NC(=O)CNC(=O)C2Cc3c([nH]c4cc(O)ccc34)[S+]([O-])CC(NC(=O)CNC1=O)C(=O)NC(CC(=O)O)C(=O)N1CC(O)CC1C(=O)NC(C(C)C(O)CO)C(=O)N2 (configuration not stated)	1.68 µM (inactive)
CC(=O)OC[C@H]1On2nnnc2[C@H](OC(C)=O)[C@@H](OC(C)=O)[C@@H]1OC(C)=O	> 100 µM (inactive)
COC(=O)[C@]12CC=C3O[C@@H]4OC5(CCCCC5)O[C@@H]4C3[C@@H]1C(=O)CCC2=O (some centres not stated)	> 100 µM (inactive)
COC(=O)[C@H]1COC(=S)N1C(=O)[C@@H](C)[C@H](O)C(C)C	> 100 µM (inactive)
CS(=O)(=O)N(N(CCCl)S(=O)(=O)c1ccccc1)S(C)(=O)=O	> 100 µM (inactive)
O=S1(=O)OCCOS(=O)(=O)C1S(=O)(=O)c1cccc2ccccc12	> 100 µM (inactive)
[N-]=[N+]=NI1OC(=O)c2ccccc21	44.9 µM (inactive)
N#Cc1cccc(C2SCc3nc4ccccc4n32)c1 (configuration not stated)	36.3 µM (inactive)
CC(=O)C(=Cc1ccc(C=C(C(C)=O)C(C)=O)cc1)C(C)=O	2.12 µM (inactive)
[O-][Cl+3]([O-])([O-])[O-].[O-][Cl+3]([O-])([O-])[O-].c1ccn2c(N3CCOCC3)[n+]3c4ccccc4[n+]4c(N5CCOCC5)n5ccccc5c4c3c2c1	> 100 µM (inactive)
O=C(CCc1nnc(S)[nH]1)Nc1cc(Cl)ccc1Cl	> 100 µM (inactive)
CC1(C)N(OC2CCCCO2)C(c2ccccc2)C(c2ccccc2)=[N+]1[O-] (configuration not stated)	> 100 µM (inactive)
CN1C(=O)C2C(C1=O)C1(O)c3ccccc3C2(N)c2ccccc21 (configuration not stated)	> 100 µM (inactive)
CCOc1ccccc1NC(=O)CC1C(=O)Nc2ccccc2[S+]1[O-] (configuration not stated)	43.1 µM (inactive)
CC1(C)OCC2OC3([C@H]4OC(C)(C)O[C@@H]4CO)OC(C)(C)OC3C2O1 (some centres not stated)	> 100 µM (inactive)
COc1ccccc1C[C@@H]1OC2(C=CC(=O)CC2SC(=O)c2ccccc2)O[C@H]1Cc1ccccc1OC (some centres not stated)	1.64 µM (inactive)
O=c1n(-c2ccccc2)c(=O)n2n1C1CCC2CC1	> 100 µM (inactive)
Cc1ccc(S(=O)(=O)NC(=O)NCC(=O)O)cc1	> 100 µM (inactive)
CN(C)CCC(C#N)(c1ccccc1)c1ccccc1	12.3 µM (inactive)
O=C1c2c(Br)sc(Br)c2[C@H]2OC(=S)N[C@@H]12	11.9 µM (inactive)
OCC#CCNCl	> 100 µM (inactive)
